Tested on: human organs
ASSAY REMARKS: Absorbed doses of radiation, estimates for human organs (OLINDA software)
COND: human organ: Esophagus
QUANTITY MEASURED: radiation dose estimate, Esophagus (mSv/MBq)
The response must be a number in mSv/MBq with no trailing unit.

Enquiry: Entry O=C([O-])CN1CCN(CC(=O)[O-])CCN(CC(=O)NCC2CCC(C(=O)N[C@@H](Cc3ccc4ccccc4c3)C(=O)NCCCC[C@H](NC(=O)N[C@@H](CCC(=O)O)C(=O)O)C(=O)O)CC2)CCN(CC(=O)[O-])CC1.[177Lu+3] (stereo partly shown) [^177Lu-PSMA-617, reference compound] , system human organs: what radiation dose estimate, Esophagus was measured?
Return: 3.39E−03

Enquiry: Next entry: O=C([O-])CN1CCN(CC(=O)[O-])CCN(CC(=O)N2CCO[C@]3(CC[C@H](C(=O)N[C@@H](Cc4ccc5ccccc5c4)C(=O)NCCCC[C@H](NC(=O)N[C@@H](CCC(=O)O)C(=O)O)C(=O)O)CC3)C2)CCN(CC(=O)[O-])CC1.[177Lu+3] [^177Lu-v]
Return: 4.33E−03

Enquiry: Next entry: O=C([O-])CN1CCN(CC(=O)[O-])CCN(CC(=O)NCC2CCC(C(=O)N[C@@H](Cc3ccc4ccccc4c3)C(=O)NCCCC[C@H](NC(=O)N[C@@H](CCC(=O)O)C(=O)O)C(=O)O)CC2)CCN(CC(=O)[O-])CC1.[68Ga+3] (stereo partly shown) [^68Ga-PSMA-617, reference compound]
Return: 1.79E−02

Enquiry: Next entry: O=C([O-])CN1CCN(CC(=O)[O-])CCN(CC(=O)N2CCO[C@]3(CC[C@H](C(=O)N[C@@H](Cc4ccc5ccccc5c4)C(=O)NCCCC[C@H](NC(=O)N[C@@H](CCC(=O)O)C(=O)O)C(=O)O)CC3)C2)CCN(CC(=O)[O-])CC1.[68Ga+3] [^68Ga-v]
Return: 3.77E−03

###

For each entry below, report its radiation dose estimate, Gallbladder Wall value.
Test system: human organs
ASSAY REMARKS: Absorbed doses of radiation, estimates for human organs (OLINDA software)
COND: human organ: Gallbladder Wall
The response must be a number in mSv/MBq with no trailing unit.

Enquiry: Entry O=C([O-])CN1CCN(CC(=O)[O-])CCN(CC(=O)N2CCO[C@]3(CC[C@H](C(=O)N[C@@H](Cc4ccc5ccccc5c4)C(=O)NCCCC[C@H](NC(=O)N[C@@H](CCC(=O)O)C(=O)O)C(=O)O)CC3)C2)CCN(CC(=O)[O-])CC1.[68Ga+3] [^68Ga-v] has what radiation dose estimate, Gallbladder Wall?
Return: 5.52E−03

Enquiry: Next entry: O=C([O-])CN1CCN(CC(=O)[O-])CCN(CC(=O)N2CCO[C@]3(CC[C@H](C(=O)N[C@@H](Cc4ccc5ccccc5c4)C(=O)NCCCC[C@H](NC(=O)N[C@@H](CCC(=O)O)C(=O)O)C(=O)O)CC3)C2)CCN(CC(=O)[O-])CC1.[177Lu+3] [^177Lu-v]
Return: 4.67E−03

Enquiry: Next entry: O=C([O-])CN1CCN(CC(=O)[O-])CCN(CC(=O)NCC2CCC(C(=O)N[C@@H](Cc3ccc4ccccc4c3)C(=O)NCCCC[C@H](NC(=O)N[C@@H](CCC(=O)O)C(=O)O)C(=O)O)CC2)CCN(CC(=O)[O-])CC1.[177Lu+3] (stereo partly shown) [^177Lu-PSMA-617, reference compound]
Return: 3.58E−03

Enquiry: Next entry: O=C([O-])CN1CCN(CC(=O)[O-])CCN(CC(=O)NCC2CCC(C(=O)N[C@@H](Cc3ccc4ccccc4c3)C(=O)NCCCC[C@H](NC(=O)N[C@@H](CCC(=O)O)C(=O)O)C(=O)O)CC2)CCN(CC(=O)[O-])CC1.[68Ga+3] (stereo partly shown) [^68Ga-PSMA-617, reference compound]
Return: 3.22E−02

###

Test system: human organs
ASSAY REMARKS: Absorbed doses of radiation, estimates for human organs (OLINDA software)
COND: human organ: Brain
QUANTITY MEASURED: radiation dose estimate, Brain (mSv/MBq)
The response must be a number in mSv/MBq with no trailing unit.

Enquiry: Entry O=C([O-])CN1CCN(CC(=O)[O-])CCN(CC(=O)NCC2CCC(C(=O)N[C@@H](Cc3ccc4ccccc4c3)C(=O)NCCCC[C@H](NC(=O)N[C@@H](CCC(=O)O)C(=O)O)C(=O)O)CC2)CCN(CC(=O)[O-])CC1.[177Lu+3] (stereo partly shown) [^177Lu-PSMA-617, reference compound] has what radiation dose estimate, Brain?
Return: 1.38E−01

Enquiry: Next entry: O=C([O-])CN1CCN(CC(=O)[O-])CCN(CC(=O)N2CCO[C@]3(CC[C@H](C(=O)N[C@@H](Cc4ccc5ccccc5c4)C(=O)NCCCC[C@H](NC(=O)N[C@@H](CCC(=O)O)C(=O)O)C(=O)O)CC3)C2)CCN(CC(=O)[O-])CC1.[68Ga+3] [^68Ga-v]
Return: 3.99E−02

Enquiry: Next entry: O=C([O-])CN1CCN(CC(=O)[O-])CCN(CC(=O)NCC2CCC(C(=O)N[C@@H](Cc3ccc4ccccc4c3)C(=O)NCCCC[C@H](NC(=O)N[C@@H](CCC(=O)O)C(=O)O)C(=O)O)CC2)CCN(CC(=O)[O-])CC1.[68Ga+3] (stereo partly shown) [^68Ga-PSMA-617, reference compound]
Return: 7.80E−02

Enquiry: Next entry: O=C([O-])CN1CCN(CC(=O)[O-])CCN(CC(=O)N2CCO[C@]3(CC[C@H](C(=O)N[C@@H](Cc4ccc5ccccc5c4)C(=O)NCCCC[C@H](NC(=O)N[C@@H](CCC(=O)O)C(=O)O)C(=O)O)CC3)C2)CCN(CC(=O)[O-])CC1.[177Lu+3] [^177Lu-v]
Return: 6.03E−02

###

Tested on: human organs
ASSAY REMARKS: Absorbed doses of radiation, estimates for human organs (OLINDA software)
COND: human organ: Kidneys
For each entry below, report its radiation dose estimate, Kidneys value.
The response must be a number in mSv/MBq with no trailing unit.

Enquiry: Entry O=C([O-])CN1CCN(CC(=O)[O-])CCN(CC(=O)NCC2CCC(C(=O)N[C@@H](Cc3ccc4ccccc4c3)C(=O)NCCCC[C@H](NC(=O)N[C@@H](CCC(=O)O)C(=O)O)C(=O)O)CC2)CCN(CC(=O)[O-])CC1.[68Ga+3] (stereo partly shown) [^68Ga-PSMA-617, reference compound] has what radiation dose estimate, Kidneys?
Return: 5.47E−01

Enquiry: Next entry: O=C([O-])CN1CCN(CC(=O)[O-])CCN(CC(=O)N2CCO[C@]3(CC[C@H](C(=O)N[C@@H](Cc4ccc5ccccc5c4)C(=O)NCCCC[C@H](NC(=O)N[C@@H](CCC(=O)O)C(=O)O)C(=O)O)CC3)C2)CCN(CC(=O)[O-])CC1.[68Ga+3] [^68Ga-v]
Return: 3.54E−02

Enquiry: Next entry: O=C([O-])CN1CCN(CC(=O)[O-])CCN(CC(=O)N2CCO[C@]3(CC[C@H](C(=O)N[C@@H](Cc4ccc5ccccc5c4)C(=O)NCCCC[C@H](NC(=O)N[C@@H](CCC(=O)O)C(=O)O)C(=O)O)CC3)C2)CCN(CC(=O)[O-])CC1.[177Lu+3] [^177Lu-v]
Return: 8.83E−01

Enquiry: Next entry: O=C([O-])CN1CCN(CC(=O)[O-])CCN(CC(=O)NCC2CCC(C(=O)N[C@@H](Cc3ccc4ccccc4c3)C(=O)NCCCC[C@H](NC(=O)N[C@@H](CCC(=O)O)C(=O)O)C(=O)O)CC2)CCN(CC(=O)[O-])CC1.[177Lu+3] (stereo partly shown) [^177Lu-PSMA-617, reference compound]
Return: 1.47E+00

###

System: human organs
ASSAY REMARKS: Absorbed doses of radiation, estimates for human organs (OLINDA software)
COND: human organ: Lungs
QUANTITY MEASURED: radiation dose estimate, Lungs
Answers without a unit are incomplete; give the number and then its unit.

Enquiry: Entry O=C([O-])CN1CCN(CC(=O)[O-])CCN(CC(=O)N2CCO[C@]3(CC[C@H](C(=O)N[C@@H](Cc4ccc5ccccc5c4)C(=O)NCCCC[C@H](NC(=O)N[C@@H](CCC(=O)O)C(=O)O)C(=O)O)CC3)C2)CCN(CC(=O)[O-])CC1.[68Ga+3] [^68Ga-v] has what radiation dose estimate, Lungs?
Return: 1.05E−02 mSv/MBq

Enquiry: Next entry: O=C([O-])CN1CCN(CC(=O)[O-])CCN(CC(=O)NCC2CCC(C(=O)N[C@@H](Cc3ccc4ccccc4c3)C(=O)NCCCC[C@H](NC(=O)N[C@@H](CCC(=O)O)C(=O)O)C(=O)O)CC2)CCN(CC(=O)[O-])CC1.[68Ga+3] (stereo partly shown) [^68Ga-PSMA-617, reference compound]
Return: 1.21E−01 mSv/MBq

Enquiry: Next entry: O=C([O-])CN1CCN(CC(=O)[O-])CCN(CC(=O)N2CCO[C@]3(CC[C@H](C(=O)N[C@@H](Cc4ccc5ccccc5c4)C(=O)NCCCC[C@H](NC(=O)N[C@@H](CCC(=O)O)C(=O)O)C(=O)O)CC3)C2)CCN(CC(=O)[O-])CC1.[177Lu+3] [^177Lu-v]
Return: 1.95E−01 mSv/MBq

Enquiry: Next entry: O=C([O-])CN1CCN(CC(=O)[O-])CCN(CC(=O)NCC2CCC(C(=O)N[C@@H](Cc3ccc4ccccc4c3)C(=O)NCCCC[C@H](NC(=O)N[C@@H](CCC(=O)O)C(=O)O)C(=O)O)CC2)CCN(CC(=O)[O-])CC1.[177Lu+3] (stereo partly shown) [^177Lu-PSMA-617, reference compound]
Return: 1.12E−01 mSv/MBq
